// values below are reported binding signal
Target: SIX1-Q177R homeodomain (human, UniProt Q15475 108-198, Q177R)
Sequence: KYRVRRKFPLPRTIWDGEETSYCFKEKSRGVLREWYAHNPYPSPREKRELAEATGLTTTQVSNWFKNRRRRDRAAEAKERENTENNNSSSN
Assay: universal protein binding microarray; Universal all-10-mer PBM (8x60K, AMADID 030236), 300 nM GST-tagged protein, Alexa Fluor 488 anti-GST; buffer, salt, pH and temperature not stated (as in Berger); high values mean tight binding
Conditions: protein: ivt; tags: N-terminal GST; dsDNA, one strand shown
In all, about 33,000 sequences were measured (“e-score”: median about -0.05, highest 2% from about 0.38 on). The entries come from a sample that favours the highest values as a whole.
RESULT TYPE: binding signal (E-score)

1. AAGCGGTG: 0.214
2. TCGGGTAA: 0.194
3. AAGACACG: 0.35
4. TACACGCA: 0.406
5. CCAGACAC: 0.37
6. ACCTCGGG: 0.273
7. CACCCATA: 0.301
8. CCGACCAC: 0.192
9. AACACGCA: 0.396
10. GCAGACAC: 0.352
11. CACTAAGA: 0.17
12. CACTGCAC: 0.223
13. CGGTGCCA: 0.19
14. AATGATAC: 0.212
15. ACACGAGA: 0.352
16. CTGTGTCA: 0.256
17. CGAACGGA: 0.21
18. GGGGGTCA: 0.313
19. GACTCCTA: 0.215
20. ACCTTCCT: 0.264
21. AGACACAC: 0.316
22. GGAGACAC: 0.397
23. CACACGCA: 0.32
24. AACACGAT: 0.358
25. CAACCCCC: 0.242
26. AGGTGTCG: 0.479
27. CGACTAAC: 0.192
28. ACGCGAGT: 0.162
29. CATCCGGG: 0.156
30. ACAAGGGT: 0.21
31. CGGTGTCA: 0.492
32. CAGACACA: 0.19
33. AGGTGGTG: 0.287
34. CGCTTACA: 0.196
35. GGGTGTCA: 0.492
36. GAGACACA: 0.241
37. CACGCACG: 0.304
38. CCTTATAA: 0.179
39. CGAGACAC: 0.389
40. CTATTACA: 0.215
41. AACACGCT: 0.379
42. ACTGATCC: 0.16
43. ACAACCCC: 0.207
44. ACCTTGTA: 0.203
45. CACTTAGC: 0.179
46. GAGACAAC: 0.152

----------
Biological target: SIX1-Q177R homeodomain (human, UniProt Q15475 108-198, Q177R)
Sequence: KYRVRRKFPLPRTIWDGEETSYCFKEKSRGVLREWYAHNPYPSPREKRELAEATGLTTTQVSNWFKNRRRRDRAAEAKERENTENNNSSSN
Experiment: universal protein binding microarray; Universal all-10-mer PBM (8x60K, AMADID 030236), 300 nM GST-tagged protein, Alexa Fluor 488 anti-GST; buffer, salt, pH and temperature not stated (as in Berger); high values mean tight binding
Settings: protein: ivt; tags: N-terminal GST; dsDNA, one strand shown
Whole data set: some 33,000 sequences, median “e-score” near -0.05, cut for the highest 2% near 0.38. The full list was thinned out, with the highest values kept by preference.
Field: label. Allowed values: criterion met (binding signal < 0.3 E-score) or criterion not met (binding signal >= 0.3 E-score).

1. CAAAACAC: criterion not met
2. ATAAACAC: criterion not met
3. TCGCACCA: criterion met
4. ACCCGGGA: criterion met
5. GGTTACAC: criterion not met
6. CAGCTACA: criterion met
7. CCAAGCGG: criterion met
8. AATACCCT: criterion met
9. CGTTACAC: criterion not met
10. AATAACAC: criterion not met
11. CTTACACC: criterion not met
12. CTCGTGTA: criterion not met
13. GTTACACA: criterion met
14. GTATCGGA: criterion met
15. ATTACACA: criterion met
16. CGGGGATC: criterion met
17. CCCGCCCG: criterion met
18. TCGGTGCA: criterion met
19. ACCCGGGT: criterion not met
20. GGCACACA: criterion met
21. ACGAGGGG: criterion met
22. GGTTGCAC: criterion met
23. ACATGACA: criterion met
24. GGTTTACA: criterion met
25. CATAACAC: criterion not met
26. GGGTGCAA: criterion met
27. GAATTACA: criterion met
28. ATTACTCC: criterion met
29. CTACGACA: criterion met
30. CCTATAAC: criterion met
31. ACCACGCA: criterion met
32. ATTACACC: criterion not met
33. TGGGAACA: criterion met
34. CACTCTAC: criterion met
35. CCACGGGG: criterion met
36. CCCGAGAC: criterion met
37. CGTTACCC: criterion met
38. CACGAACG: criterion met
39. CCCGGCCC: criterion met
40. CTTACACA: criterion met
41. ATCCGACC: criterion met
42. GAGTAACA: criterion met
43. CTCGAGTA: criterion met
44. CTCGGGTA: criterion met
45. GATAATAC: criterion met
